Target: OTULINcat (aa 80-352) (human, UniProt Q96BN8 80-352)
Sequence (Q96BN8 80-352): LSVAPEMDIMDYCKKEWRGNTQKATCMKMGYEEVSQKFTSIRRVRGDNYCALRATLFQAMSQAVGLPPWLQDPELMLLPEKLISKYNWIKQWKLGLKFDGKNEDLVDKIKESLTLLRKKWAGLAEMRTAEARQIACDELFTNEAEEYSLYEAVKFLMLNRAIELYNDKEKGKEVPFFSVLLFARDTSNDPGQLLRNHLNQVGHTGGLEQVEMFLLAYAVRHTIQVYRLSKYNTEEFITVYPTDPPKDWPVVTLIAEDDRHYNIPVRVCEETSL
Test: ITC; PDZ variant (150-450 µM) in the syringe, OTULINcat variant (20-30 µM) in the cell; 25 °C; 20 mM HEPES pH 7.4, 200 mM NaCl, 2 mM TCEP; single-site binding model
Conditions: both partners purified
metric_name: Kd (µM)
Record the value in µM, omitting the unit from your answer.

Consider the reported Kd for these binders:
[[record]]
binder = "RhoGEF PDZ domain (41-123) (domain or fragment, UniProt O15085 41-123, looked up, RhoGEF, PDZ domain, residues 41-123; The printed DNA (249 nt) fits 83 residues; source: E. coli, purified analogous to SNX27PDZ (pOPIN-S vector)) TGLVQRCVIIQKDQHGFGFTVSGDRIVLVQSVRPGGAAMKAGVKEGDRIIKVNGTMVTNSSHLEVVKLIKSGAYVALTLLGSS"
metric_name = "Kd"
value_measured = 38.3

[[record]]
binder = "NHERF1 PDZ2 (150-235) (domain or fragment, UniProt O14745 150-235, looked up, The printed DNA (258 nt) fits 86 residues; source: E. coli, purified analogous to SNX27PDZ (pOPIN-S vector)) LRPRLCTMKKGPSGYGFNLHSDKSKPGQFIRSVDPDSPAEASGLRAQDRIVEVNGVCMEGKQHGDVVSAIRAGGDETKLLVVDRET"
metric_name = "Kd"
value_measured = 35.6

[[record]]
binder = "LNX2 PDZ3 (465-560) (domain or fragment, UniProt Q8N448 465-560, looked up, LNX2, third PDZ domain, residues 465-560; The printed DNA (288 nt) fits 96 residues; source: E. coli, purified analogous to SNX27PDZ (pOPIN-S vector)) QEKHITVKKEPHESLGMTVAGGRGSKSGELPIFVTSVPPHGCLARDGRIKRGDVLLNINGIDLTNLSHSEAVAMLKASAASPAVALKALEVQIVEE"
metric_name = "Kd"
value_measured = 57.1


Now look at this entry.
// sample PSD95 PDZ2 (155-249) (domain or fragment, UniProt P78352 155-249, looked up, PSD95, second PDZ domain, residues 155-249; The printed DNA (285 nt) fits 95 residues; source: E. coli, purified analogous to SNX27PDZ (pOPIN-S vector)) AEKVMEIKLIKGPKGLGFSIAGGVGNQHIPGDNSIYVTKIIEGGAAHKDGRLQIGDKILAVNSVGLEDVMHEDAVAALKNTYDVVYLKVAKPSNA , its Kd was 98.9
